Every entry's value here was drawn from patent US11214803B2.

Test system: Yap1 mRNA
Test: Antisense inhibition of human Yap1 in A-431 cells by cEt gapmers, single dose (Example 3, RTS36584)
Assay type: cell-based
Details: Table 26; Yap1 mRNA by 3-10-3 cEt gapmers targeting SEQ ID NO.: 1, and 2; percent of untreated control
Protocol: Modified oligonucleotides were designed to target a Yap1 nucleic acid and were tested for their effect on Yap1 mRNA level in vitro. The modified oligonucleotides were tested in a series of experiments that had similar culture conditions. […] After a treatment period of approximately 48 hours, RNA was isolated from the cells and Yap1 mRNA levels were measured by quantitative real-time RTPCR. […] Yap1 mRNA levels were normalized to total RNA content, as measured by RIBOGREEN®. […]
Strand notation (5' to 3'): a small letter for the sugar, then the base; units joined by * are phosphorothioate-linked, units joined directly phosphodiester-linked; [ ] holds rarer units or linkages, { } end groups; capitals alone tell only the bases. k = constrained ethyl (cEt); [5mC] = 5-methylcytosine; d = 2'-deoxy (DNA)
Please note: true applies when YAP1 (% UTC) is 30 % UTC or greater, and false applies otherwise.

[[record]]
substance = "1076204 (kG*kA*kT*dA*dA*dT*dG*dA*dA*dT*d[5mC]*d[5mC]*dT*kT*kG*kT; antisense) [compound 1076204]"
system_name = "Yap1 mRNA"
category_label = "false"

[[record]]
substance = "1074636 (antisense kA*kT*k[5mC]*dT*dA*dT*d[5mC]*dT*dT*d[5mC]*d[5mC]*d[5mC]*dA*kA*kG*k[5mC]) [compound 1074636]"
system_name = "Yap1 mRNA"
category_label = "true"

[[record]]
substance = "1074700 (antisense kG*kT*kA*dA*dG*dA*d[5mC]*dA*dA*dG*dT*d[5mC]*dT*kT*kT*kA) [compound 1074700]"
system_name = "Yap1 mRNA"
category_label = "false"

[[record]]
substance = "1074604 (DNA kT*kT*kA*dT*dT*dA*dA*dT*d[5mC]*dT*dG*dA*dT*k[5mC]*kA*k[5mC]) [compound 1074604]"
system_name = "Yap1 mRNA"
category_label = "false"

[[record]]
substance = "1075532 (kA*k[5mC]*kT*dT*dA*dA*dT*dA*dG*dT*dT*dT*dA*kA*k[5mC]*k[5mC]; antisense) [compound 1075532]"
system_name = "Yap1 mRNA"
category_label = "true"


###

The reader will find reported YAP1 (% UT) values listed item by item below.
Tested on: Yap1 mRNA
Experiment: Antisense inhibition of human Yap1 in SNU-449 cells by modified oligonucleotides, single dose (Example 5, RTS36584)
Type: cell-based
Conditions: Yap1 mRNA, percent of untreated control; modified oligonucleotides targeting SEQ ID NO: 1 and 2; Table 47
Strand notation (5' to 3'): a small letter for the sugar, then the base; units joined by * are phosphorothioate-linked, units joined directly phosphodiester-linked; [ ] holds rarer units or linkages, { } end groups; capitals alone tell only the bases. e = 2'-O-(2-methoxyethyl) (MOE); k = constrained ethyl (cEt); [5mC] = 5-methylcytosine; d = 2'-deoxy (DNA)
observed property: YAP1 (% UT)

[[record]]
substance = "1009328 (kT*kA*kT*dA*dT*dT*dA*dG*dA*dG*dT*dA*dT*kG*kT*kG; antisense) [Compound 1009328]"
observed_measurement = "67 % UT"

[[record]]
substance = "1197220 (antisense kT*kA*kA*dG*dG*dT*dT*dT*d[5mC]*d[5mC]*d[5mC]*dA*dG*kA*kT*kT) [Compound 1197220]"
observed_measurement = "32 % UT"

[[record]]
substance = "1097037 (antisense kA*kG*kA*dT*dT*dT*dA*dG*dG*dA*dT*dG*d[5mC]*kA*kT*kG) [Compound 1097037]"
observed_measurement = "38 % UT"

[[record]]
substance = "1197212 (antisense kT*kT*kT*dA*dT*dG*dT*dA*dA*dT*dA*dT*dT*kG*k[5mC]*kA) [Compound 1197212]"
observed_measurement = "55 % UT"

[[record]]
substance = "716444 (kA*kA*kA*dT*dT*dG*dT*d[5mC]*dT*d[5mC]*dA*dT*dG*k[5mC]*k[5mC]*kT) [Compound 716444]"
observed_measurement = "46 % UT"

[[record]]
substance = "1076186 (kA*kT*kT*dT*dA*dG*dG*dA*dT*dG*d[5mC]*dA*dT*kG*kG*kT) [Compound 1076186]"
observed_measurement = "31 % UT"

[[record]]
substance = "1197179 (antisense kT*kG*kG*dA*dA*dA*dT*dT*dG*dT*d[5mC]*dT*d[5mC]*kA*kT*kG) [Compound 1197179]"
observed_measurement = "16 % UT"

[[record]]
substance = "1198874 (kA*kA*dG*dT*dG*dT*dA*dT*dG*dT*d[5mC]*kA*eG*kA*eA*kG) [Compound 1198874]"
observed_measurement = "2 % UT"


###

Experiment: Tolerability in Sprague-Dawley rats, plasma chemistry markers (Example 21)
Type: in vivo
Settings: male Sprague-Dawley rats, 50 mg/kg s.c. weekly for 6 weeks (7 doses), 48 hours after last dose
Marks after values point to notes of the source that are not given here. Strand notation (5' to 3'): a small letter for the sugar, then the base; units joined by * are phosphorothioate-linked, units joined directly phosphodiester-linked; [ ] holds rarer units or linkages, { } end groups; capitals alone tell only the bases. e = 2'-O-(2-methoxyethyl) (MOE); k = constrained ethyl (cEt); [5mC] = 5-methylcytosine; d = 2'-deoxy (DNA)
observed property: ALT

[[record]]
substance = "1074756 (kG*k[5mC]*kA*d[5mC]*dT*dT*dT*dT*dA*d[5mC]*dA*dT*dT*kA*kG*kG) [compound 1074756]"
observed_property = "ALT"
observed_measurement = "114* U/L"

[[record]]
substance = "1198439 (AGTGTATGTCAGAAGA; sugar, 5-methylcytosine, phosphorothioate modifications, further chemistry not given here) [compound 1198439]"
observed_property = "ALT"
observed_measurement = "54* U/L"

[[record]]
substance = "1198873 (kA*kG*dT*dG*dT*dA*dT*dG*dT*d[5mC]*dA*kG*eA*kA*eG*kA; antisense) [compound 1198873]"
observed_property = "ALT"
observed_measurement = "78* U/L"


###

Catalogue of substances with associated Yap1 mRNA in tumors, % UTC
Tested on: Yap1 mRNA
Test: Inhibition of human Yap1 mRNA in squamous cell carcinoma CAL27 xenograft tumors (Example 28)
Assay type: in vivo
Settings: 30 mg/kg daily for five days, CAL27 xenografts in NCr-Foxn1nu mice, relative to PBS treated
observed property: Yap1 mRNA in tumors, % UTC (% UTC)

[[record]]
substance = "1197270 (TTAAAGTGTATGTCAG; cEt gapmer with 2'-OMe nucleoside, phosphorothioate, further chemistry not given here) [compound 1197270]"
observed_property = "Yap1 mRNA in tumors, % UTC"
result_units = "% UTC"
observed_measurement = 38

[[record]]
substance = "1198605 (GTAATATTGCAATCTG; modified gapmer, further chemistry not given here) [compound 1198605]"
observed_property = "Yap1 mRNA in tumors, % UTC"
result_units = "% UTC"
observed_measurement = 48

[[record]]
substance = "1198872 (TGTATGTCAGAAGAGT; chemically modified gapmer, further chemistry not given here) [compound 1198872]"
observed_property = "Yap1 mRNA in tumors, % UTC"
result_units = "% UTC"
observed_measurement = 38


###

Tested on: Yap1 mRNA
Assay: Antisense inhibition of human Yap1 in SNU-449 cells by modified oligonucleotides, single dose (Example 5, RTS36584)
Assay type: cell-based
Conditions: Table 40 (separate experiment); SNU-449 cells, 10,000 cells per well, free uptake, 2,000 nM oligonucleotide, approx. 48 hours; RTS36584; normalized to RIBOGREEN; Yap1 mRNA relative to untreated control
Strand notation (5' to 3'): a small letter for the sugar, then the base; units joined by * are phosphorothioate-linked, units joined directly phosphodiester-linked; [ ] holds rarer units or linkages, { } end groups; capitals alone tell only the bases. e = 2'-O-(2-methoxyethyl) (MOE); k = constrained ethyl (cEt); [5mC] = 5-methylcytosine; d = 2'-deoxy (DNA)
Short version: YAP1 (% UTC) at least 40 % UTC is yes (1), less is no (0).

[[record]]
substance = "1198726 (kT*eT*kA*dG*dA*dG*dT*dA*dT*dG*dT*dG*eG*e[5mC]*kA*kA; antisense) [Compound 1198726]"
category_label = "no (0)"

[[record]]
substance = "1198753 (k[5mC]*eT*kT*dT*dG*dG*dA*dA*dG*dA*dT*d[5mC]*eT*eG*kA*kA; antisense) [Compound 1198753]"
category_label = "yes (1)"

[[record]]
substance = "1198440 (kA*dA*dG*dT*dG*dT*dA*dT*dG*dT*d[5mC]*kA*eG*kA*eA*kG) [Compound 1198440]"
category_label = "no (0)"

[[record]]
substance = "1198784 (antisense kT*eA*kT*dG*dT*dA*dA*dT*dA*dT*dT*dG*e[5mC]*eA*kA*kT) [Compound 1198784]"
category_label = "yes (1)"

[[record]]
substance = "1198785 (antisense kT*eT*kT*dA*dT*dG*dT*dA*dA*dT*dA*dT*eT*eG*k[5mC]*kA) [Compound 1198785]"
category_label = "yes (1)"

[[record]]
substance = "1198752 (kT*eT*kT*dG*dG*dA*dA*dG*dA*dT*d[5mC]*dT*eG*eA*kA*kA; antisense) [Compound 1198752]"
category_label = "yes (1)"

[[record]]
substance = "1198732 (kT*eA*kT*dA*dA*d[5mC]*dT*dG*dG*dG*d[5mC]*dA*eA*eA*kT*kT; antisense) [Compound 1198732]"
category_label = "yes (1)"

[[record]]
substance = "1198731 (kT*e[5mC]*kT*dA*dT*dA*dT*dT*dA*dG*dA*dG*eT*eA*kT*kG; antisense) [Compound 1198731]"
category_label = "yes (1)"

[[record]]
substance = "1198754 (kG*e[5mC]*kT*dT*dT*dG*dG*dA*dA*dG*dA*dT*e[5mC]*eT*kG*kA; antisense) [Compound 1198754]"
category_label = "no (0)"

[[record]]
substance = "1198441 (kA*dA*dA*dG*dT*dG*dT*dA*dT*dG*dT*k[5mC]*eA*kG*eA*kA; antisense) [Compound 1198441]"
category_label = "no (0)"

[[record]]
substance = "1198756 (kG*eT*kG*d[5mC]*dT*dT*dT*dG*dG*dA*dA*dG*eA*eT*k[5mC]*kT; antisense) [Compound 1198756]"
category_label = "yes (1)"

[[record]]
substance = "1198766 (kT*e[5mC]*kA*dG*dA*dT*dT*dT*dA*dG*dG*dA*eT*eG*k[5mC]*kA; antisense) [Compound 1198766]"
category_label = "no (0)"

[[record]]
substance = "1198428 (kG*dA*d[5mC]*dA*dA*d[5mC]*dT*d[5mC]*dT*dT*dA*kT*eA*kT*eG*kG; antisense) [Compound 1198428]"
category_label = "yes (1)"

[[record]]
substance = "1198795 (antisense kT*eA*kA*dG*dG*dT*dT*dT*d[5mC]*d[5mC]*d[5mC]*dA*eG*eA*kT*kT) [Compound 1198795]"
category_label = "yes (1)"

[[record]]
substance = "1198801 (antisense kG*eA*k[5mC]*dT*dA*dA*dG*dT*dA*dA*dG*dG*eT*eT*kT*k[5mC]) [Compound 1198801]"
category_label = "yes (1)"

[[record]]
substance = "1198720 (kT*eG*kG*dA*dA*dA*dT*dT*dG*dT*d[5mC]*dT*e[5mC]*eA*kT*kG; antisense) [Compound 1198720]"
category_label = "no (0)"

[[record]]
substance = "1198442 (kT*dA*dA*dA*dG*dT*dG*dT*dA*dT*dG*kT*e[5mC]*kA*eG*kA; antisense) [Compound 1198442]"
category_label = "yes (1)"

[[record]]
substance = "1198757 (kA*eG*kT*dG*d[5mC]*dT*dT*dT*dG*dG*dA*dA*eG*eA*kT*k[5mC]; antisense) [Compound 1198757]"
category_label = "no (0)"

[[record]]
substance = "1198778 (kA*eT*kA*dT*dT*dG*d[5mC]*dA*dA*dT*d[5mC]*dT*eG*eT*k[5mC]*kT; antisense) [Compound 1198778]"
category_label = "yes (1)"

[[record]]
substance = "1198767 (kA*eT*kT*d[5mC]*dA*dG*dA*dT*dT*dT*dA*dG*eG*eA*kT*kG; antisense) [Compound 1198767]"
category_label = "yes (1)"

[[record]]
substance = "1198758 (kA*eT*kA*dG*dT*dG*d[5mC]*dT*dT*dT*dG*dG*eA*eA*kG*kA; antisense) [Compound 1198758]"
category_label = "yes (1)"

[[record]]
substance = "1198746 (kG*e[5mC]*kA*d[5mC]*dT*dT*dT*dT*dA*d[5mC]*dA*dT*eT*eA*kG*kG; antisense) [Compound 1198746]"
category_label = "no (0)"

[[record]]
substance = "1198714 (kT*eG*kT*d[5mC]*dT*d[5mC]*dA*dT*dG*d[5mC]*d[5mC]*dT*eT*eA*kT*kA; antisense) [Compound 1198714]"
category_label = "no (0)"

